# Measurement Notes: Binding affinity to DNA assessed as dissociation constant at < 2 mM by isothermal spectrophotometric titration method
pKd: −log10 of the molar value.

Entry Sequence: DICHLORODIMETHYLSTANNANE
pKd: 3.55
